# IC50 annotations
- System: 521955-158-R2-J5-PDC spheroids with stroma, growth inhibition;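 also: spheroids exposed to drugs for seven days before readout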
- method_summary: Anticancer human tumor 521955-158-R2-J5-PDC patient-derived pancreatic carcinoma cell line growth inhibition [TAK]
- condition_notes: curve of first compound; second compound 0.949 µM
- Protocol: Combinatorial screen of targeted agents with TAK-243 and ipatasertib in multi-cell type tumor spheroids […] Compounds. […] If the clinical Cmax for an agent had not been determined, the highest concentration tested was 10 microM. NCI60 Cell Culture. […] The optimal seeding densities for each of the cell lines at each time point assessed were determined prior to performing the concentration response studies. […]

- molecule: "Cc1nc(NC(=O)N2CCCC2C(N)=O)sc1-c1ccnc(C(C)(C)C(F)(F)F)c1 (stereo not given) + CC(C)NCC(C(=O)N1CCN(c2ncnc3c2C(C)CC3O)CC1)c1ccc(Cl)cc1"
  comparison_sign: "="
  IC50, µM: 0.533
- molecule: "CC(C)n1nc(-c2ccc3oc(N)nc3c2)c2c(N)ncnc21 + CC(C)NCC(C(=O)N1CCN(c2ncnc3c2C(C)CC3O)CC1)c1ccc(Cl)cc1"
  comparison_sign: "="
  IC50, µM: 0.0349
- molecule: "Cn1cnc2c(F)c(Nc3ccc(Br)cc3Cl)c(C(=O)NOCCO)cc21 + CC(C)NCC(C(=O)N1CCN(c2ncnc3c2C(C)CC3O)CC1)c1ccc(Cl)cc1"
  comparison_sign: "<"
  IC50, µM: 0.00949
- molecule: "COC1CC2CCC(C)C(O)(O2)C(=O)C(=O)N2CCCCC2C(=O)OC(C(C)CC2CCC(OCCO)C(OC)C2)CC(=O)C(C)C=C(C)C(O)C(OC)C(=O)C(C)CC(C)C=CC=CC=C1C (stereo not given) + CC(C)NCC(C(=O)N1CCN(c2ncnc3c2C(C)CC3O)CC1)c1ccc(Cl)cc1"
  comparison_sign: ">"
  IC50, µM: 0.1
- molecule: "CC(C)CC(NC(=O)C(Cc1ccccc1)NC(=O)c1cnccn1)B(O)O (stereo not given) + CC(C)NCC(C(=O)N1CCN(c2ncnc3c2C(C)CC3O)CC1)c1ccc(Cl)cc1"
  comparison_sign: "="
  IC50, µM: 0.00525
- molecule: "CC(C)CC(NC(=O)CNC(=O)c1cc(Cl)ccc1Cl)B1OC(=O)CC(CC(=O)O)(C(=O)O)O1 (stereo not given) + CC(C)NCC(C(=O)N1CCN(c2ncnc3c2C(C)CC3O)CC1)c1ccc(Cl)cc1"
  comparison_sign: "="
  IC50, µM: 0.03
- molecule: "COc1c(OCCCN2CCOCC2)ccc2c3n(c(=NC(=O)c4cnc(N)nc4)nc12)CCN3 + CC(C)NCC(C(=O)N1CCN(c2ncnc3c2C(C)CC3O)CC1)c1ccc(Cl)cc1"
  comparison_sign: "="
  IC50, µM: 0.00505
- molecule: "CCCS(=O)(=O)Nc1ccc(F)c(C(=O)c2c[nH]c3ncc(-c4ccc(Cl)cc4)cc23)c1F + CC(C)NCC(C(=O)N1CCN(c2ncnc3c2C(C)CC3O)CC1)c1ccc(Cl)cc1"
  comparison_sign: ">"
  IC50, µM: 100
- molecule: "CC(=O)Nc1cccc(-n2c(=O)n(C3CC3)c(=O)c3c(Nc4ccc(I)cc4F)n(C)c(=O)c(C)c32)c1 + CC(C)NCC(C(=O)N1CCN(c2ncnc3c2C(C)CC3O)CC1)c1ccc(Cl)cc1"
  comparison_sign: "="
  IC50, µM: 0.000283
- molecule: "CC(C)(C)c1nc(-c2cccc(NS(=O)(=O)c3c(F)cccc3F)c2F)c(-c2ccnc(N)n2)s1 + CC(C)NCC(C(=O)N1CCN(c2ncnc3c2C(C)CC3O)CC1)c1ccc(Cl)cc1"
  comparison_sign: "="
  IC50, µM: 9.73
